Reference source for all entries: the RNAGym collection of RNA variant scans (doi:10.7554/elife.80360)

B1: Hairpin Ribozyme (parent)
chain: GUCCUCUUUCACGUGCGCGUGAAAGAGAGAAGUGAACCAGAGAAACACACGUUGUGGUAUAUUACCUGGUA

variants of: B1; test: self-cleavage, relative activity (ratio to wild type); higher = more cleavage; co-transcriptional
Please respond with reported self-cleavage for every item in the list.
Give bare numbers.

Some solved cases for reference:
residues="GUCCCCUUUCACGUGCGCGUGAAAGAGAGAAGGGAACCAGAGAAACACACGUUGUGGUAUAUUACCUGGUA [U5C U33G]" readout_name=self-cleavage test_value=0.208
residues="GUCCUCUUCCACGUGCGCGUGAAAGAUAGAAGUGAACCAGAGAAACACACGUUGUGGUAUAUUACCUGGUA [U9C G27U]" readout_name=self-cleavage test_value=0.246
residues="GUCCUCUUUUACGUGCGCGUGAAAGAGAGAAGUGAACCCGAGAAACACACGUUGUGGUAUAUUACCUGGUA [C10U A39C]" readout_name=self-cleavage test_value=0.458
residues="GUCCUCUUUCACGUGCGCGUGGAAGAGAGGAGUGAACCAGAGAAACACACGUUGUGGUAUAUUACCUGGUA [A22G A30G]" readout_name=self-cleavage test_value=0.0887
residues="AUCCUCUUUCACGUGCGCGUGAAAGAGAGAAGUGAACCAGAGCAACACACGUUGUGGUAUAUUACCUGGUA [G1A A43C]" readout_name=self-cleavage test_value=0.144

Give self-cleavage for each listed item.
1. GUCCUCUUUCACGUGCGCGUGAAAGAGAGAAGUGAACCGGAGAAACACAAGUUGUGGUAUAUUACCUGGUA [A39G C50A]
2. GUCCUCUUUCACGUGCGCGUGAAAGAGAGAAGUGAACCAGACAAACACACGUUGUGGUUUAUUACCUGGUA [G42C A59U]

Output:
1. 0.196
2. 0.156

Give self-cleavage for each listed item.
1. GUCCUCUUUCACGUGCGCGUGAAAGGGAGAAGUGAACCAGAGAAACACACGUUGUGGCAUAUUACCUGGUA [A26G U58C]
2. GCCCUCUUUCACGUGCGCGUGAAAGAGAGAAGUGAACCAGAGAAACACACGUUGUGGUAUAUCACCUGGUA [U2C U63C]
3. GUCCUCGUUCACGUGCGCGUGAAAGAGAGAGGUGAACCAGAGAAACACACGUUGUGGUAUAUUACCUGGUA [U7G A31G]

Output:
1. 1.02
2. 0.109
3. 0.503

Give self-cleavage for each listed item.
1. GUCCUCUUUCACGUGCGCGUGAAAGAGAGAACUGAACCAGAGAAACACACGGUGUGGUAUAUUACCUGGUA [G32C U52G]
2. GUCCUCUUUCACGUGCGCGUGAAAGAGAGAAGUGAACCAGAGAGACACACGUUGUGGUAUAUUAGCUGGUA [A44G C65G]
3. GUCCUCUUUCACGUGCGCGUGAAAGAGAGAAGUGAACAAGAGAAACACACGAUGUGGUAUAUUACCUGGUA [C38A U52A]

Output:
1: 0.125; 2: 0.192; 3: 0.41

Give self-cleavage for each listed item.
1. GUCCUCUUUCACAUGCGCGUGAAAGACAGAAGUGAACCAGAGAAACACACGUUGUGGUAUAUUACCUGGUA [G13A G27C]
2. GUCCUCUUUCACGUGCGCGUGAAAGAGAGAAGUGACCCAGAGAAACACACGUUGCGGUAUAUUACCUGGUA [A36C U55C]
3. GUCCUUUUUCUCGUGCGCGUGAAAGAGAGAAGUGAACCAGAGAAACACACGUUGUGGUAUAUUACCUGGUA [C6U A11U]
4. GUCCUCUUUCACGUGCGAGUGAAAGAGAGAAGUGAACCAGAGAAACACACGUUGUGGUAUAUUACUUGGUA [C18A C66U]

Output:
1. 0.217
2. 0.0703
3. 0.578
4. 0.594

Give self-cleavage for each listed item.
1. GUCCUCUUUCACGUGCGCGUGAAAGAGAGAAGUGAACCAGAGAAACACCCGUUGUGGUUUAUUACCUGGUA [A49C A59U]
2. GUCCUCUUUCACGUGCGCGUGAAAGAGAGAGGUGAACCAGAGAAACACACGUUGUGGUAUAUUACCCGGUA [A31G U67C]

Output:
[0.287, 0.118]

Give self-cleavage for each listed item.
1. GUCCUCUUUCACGUGCGCGUGAAAGAGAGAAGUGAAGCAGAGAAACACACGUUGUGGUAUAUAACCUGGUA [C37G U63A]
2. GUCCUCUUUCACGUGCGCGUGAAAGAGAGAAGGGAACCAGAGAAACACACGUUGUGGUAUAUUACCUGGUU [U33G A71U]
3. GUCCUCUUUCAUGUGCGCGUGAAAGAGAGAAGUGAACCAGAGAAACACACGUUGUGGUAUACUACCUGGUA [C12U U62C]
4. GUCCUCUCUCACGUGCGUGUGAAAGAGAGAAGUGAACCAGAGAAACACACGUUGUGGUAUAUUACCUGGUA [U8C C18U]
5. GCCCUCUUUCACGUGCGCGUGAAAGAGAGAAGUGAACCAGAGACACACACGUUGUGGUAUAUUACCUGGUA [U2C A44C]
6. GUCCUCUUUCACGUGCGCGUGAAAGAGAGAAGUGAACCAGAGAAACACACGUCGUGCUAUAUUACCUGGUA [U53C G57C]
7. GUCCUUUUUCACGUGCGCGUGAAAGAGAGAAGUGAACCAGAGAGACACACGUUGUGGUAUAUUACCUGGUA [C6U A44G]
8. GUCCUGUUUCACGUGCGCGUGAAAGAGAGAAGUGAACCAGUGAAACACACGUUGUGGUAUAUUACCUGGUA [C6G A41U]

Output:
0.172
0.067
0.27
0.779
0.0731
0.244
0.132
0.873

Give self-cleavage for each listed item.
1. GUCCUCUUUCACGUGCGCGGGAAAGAGAGAAGUGAACCAGAGAAACACACGUUAUGGUAUAUUACCUGGUA [U20G G54A]
2. GUCCUCUUUCACGUGCGCGUGAAAGAGAGAAGUGAACCAGAGAGACACACGUUGUCGUAUAUUACCUGGUA [A44G G56C]
3. GUCCUCUUUCACGUGCGCGUGAUAGAGAGAAGUGAACCAGAGAAACACACGUUGUGGUAUAUUCCCUGGUA [A23U A64C]
4. GUCCUCUUUCACGUGCGCGUGACAGAGAGAAGUGAACCAGAGAAACACACGUUGUGGUAUAUUAGCUGGUA [A23C C65G]
5. GUCCUCUUUCACGUGCGCGUAAAUGAGAGAAGUGAACCAGAGAAACACACGUUGUGGUAUAUUACCUGGUA [G21A A24U]
6. GUCCUCUUUCACGUGCGCGUGAAAGAGAGAAGUGAGACAGAGAAACACACGUUGUGGUAUAUUACCUGGUA [A36G C37A]
7. GUCCUCUUUCACGUGCGCGUGAAAGAGAGAAGUGAACCAGAGAAACACACGUUGUGGUAUAUUACAUGGCA [C66A U70C]

Output:
1: 0.417; 2: 0.0768; 3: 0.221; 4: 0.186; 5: 0.513; 6: 0.297; 7: 0.305

Give self-cleavage for each listed item.
1. GUCAUCUUUCACGUGCCCGUGAAAGAGAGAAGUGAACCAGAGAAACACACGUUGUGGUAUAUUACCUGGUA [C4A G17C]
2. GUCCGCUUUCACGUGCGCGUGAAAGAGAGAAGUGAACCAGAGAAACACACGUUCUGGUAUAUUACCUGGUA [U5G G54C]

Output:
[0.225, 0.212]
